molecular target: Kappa-type opioid receptor (Homo sapiens) (UniProt P41145); test: kappa opioid receptor blockers, retest – cell-based, fluorescence, confirmation (AID 652082); conditions: OPRK1 cell line, fluorescence antagonist read-out; at 9 µM; active compounds read high
Sequence (P41145 whole entry, looked up): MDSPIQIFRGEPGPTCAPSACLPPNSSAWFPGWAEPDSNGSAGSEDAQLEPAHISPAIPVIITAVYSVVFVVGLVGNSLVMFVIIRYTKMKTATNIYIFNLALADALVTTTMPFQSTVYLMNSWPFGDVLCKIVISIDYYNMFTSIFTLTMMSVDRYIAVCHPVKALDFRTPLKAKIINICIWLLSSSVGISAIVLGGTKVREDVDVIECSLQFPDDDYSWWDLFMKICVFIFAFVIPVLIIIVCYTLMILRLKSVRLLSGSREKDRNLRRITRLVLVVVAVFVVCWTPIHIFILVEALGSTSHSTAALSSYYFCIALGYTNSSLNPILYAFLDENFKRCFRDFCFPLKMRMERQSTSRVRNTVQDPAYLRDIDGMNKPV
Measured Metric: inhibition (%)

Consider the worked cases shown below.
{"columns": ["Mol", "inhibition [%]"],
 "data": [
  ["Cc1ccc(/C=c2\\sc3nc4ccccc4n3c2=O)o1", 5.32],
  ["O=C(Nc1ccc(Cl)cc1Cl)c1cc([N+](=O)[O-])cc2c1-c1ccc([N+](=O)[O-])cc1C2=O", 59.2],
  ["COc1cccc(C(=O)c2sc3nsc(SCc4ccc(F)cc4)c3c2N)c1", 2.74],
  ["COc1ccc(OS(=O)(=O)c2sc(Br)cc2Br)cc1", 36.2]
]}

(P) CCCCNc1ccc2c3c(cccc13)C(=O)N(CCCC)C2=O
(Q) O=[N+]([O-])c1ccc(N/N=C2\CCOc3ccc(F)cc32)cc1
Task item: Kindly identify the item with the lower inhibition figure among these two: P and Q Write down the label of the entry you select.
Reply: Q

---

molecular target: Kappa-type opioid receptor (Homo sapiens) (UniProt P41145); experiment: kappa opioid receptor blockers, retest – cell-based, fluorescence, confirmation (AID 652082); conditions: OPRK1 cell line, fluorescence antagonist read-out; at 9 µM; active compounds read high
Measured Metric: inhibition (%)

Consider the worked cases shown below.
{"columns": ["Mol", "Subject Of Test", "inhibition, %"],
 "data": [
  ["O=C1c2ccc(Cl)c3c(N4CCSCC4)ccc(c23)C(=O)N1c1ccccc1", "Kappa-type opioid receptor (Homo sapiens) (UniProt P41145)", 9.35],
  ["O=C(/C=C/c1cc(-c2ccccc2)c(C(F)(F)F)s1)c1cccs1", "Kappa-type opioid receptor (Homo sapiens) (UniProt P41145)", 20.3],
  ["COc1ccccc1C1CCN(Cc2ccc3c(c2)CCC(C)(C)O3)CC1", "Kappa-type opioid receptor (Homo sapiens) (UniProt P41145)", 59.5],
  ["Cn1c(=O)c2cc3cc(Cl)ccc3nc2c2c(=O)n(-c3ccccc3)c(=O)n(-c3ccccc3)c21", "Kappa-type opioid receptor (Homo sapiens) (UniProt P41145)", 58.9],
  ["O=[N+]([O-])c1ccc(N2CCc3ccccc32)cc1", "Kappa-type opioid receptor (Homo sapiens) (UniProt P41145)", 17.4],
  ["CCOC(=O)C1CCN(Cc2cccc(NC(=O)c3ccco3)c2)CC1", "Kappa-type opioid receptor (Homo sapiens) (UniProt P41145)", 35.5],
  ["Nc1c(C(=O)N/N=C/c2ccc3c(c2)OCO3)sc2nnc(-c3ccccc3)c(-c3ccccc3)c12", "Kappa-type opioid receptor (Homo sapiens) (UniProt P41145)", 77.2],
  ["COC(=O)c1ccc(/C=C2\\C(=O)Nc3ccccc32)n1-c1ccc(F)cc1", "Kappa-type opioid receptor (Homo sapiens) (UniProt P41145)", 12]
]}

(P) CSc1ccc(/C=C/c2onc(C)c2[N+](=O)[O-])s1
(Q) CCOC(=O)[C@@H](N)CCSC
Task item: Lab notebook, comparison: P versus Q , higher inhibition goes to which? Write down the label of the entry you select.
Reply: P

(A) C#Cc1cccc(NC(=O)c2sc3nc4c(c(-c5cccs5)c3c2N)CCCC4)c1
(B) COC(=O)c1cnn(-c2ccc(Cl)cc2)c1C=C(C#N)C#N
(C) O=C(N/C(=C\c1ccc(-c2ccc([N+](=O)[O-])cc2)o1)c1nc2ccccc2[nH]1)c1ccccc1
Task item: # sort list by recorded inhibition, greatest to least Could you list the labels in the order requested?
Reply: C, A, B

(I) CCCCCCCCCCCC(=O)ON1C(=O)CCC1=O
(II) O=C(NNC(=O)C(F)(F)F)c1ccc[nH]1
Task item: Kindly identify the item with the lower inhibition figure among these two: I and II Write down the label of the entry you select.
Reply: II

(I) Nc1c(C(=O)c2ccccc2)sc2nsc(SCCN3CCCC3)c12
(II) CN(C)c1ccc(-n2nnnc2SCc2ccc(Cl)cc2)cc1
Task item: Lab notebook, comparison: I versus II , higher inhibition goes to which? Write down the label of the entry you select.
Reply: I
(I: 43.2%, II: 26%)

---

molecular target: Kappa-type opioid receptor (Homo sapiens); test: kappa opioid receptor blockers, retest – cell-based, fluorescence, confirmation (AID 652082); conditions: OPRK1 cell line, fluorescence antagonist read-out; at 9 µM; active compounds read high
Measured Metric: inhibition (%)

Consider the worked cases shown below.
{"columns": ["Molecule", "Subject Of Test", "inhibition (%)"],
 "data": [
  ["O=[N+]([O-])c1ccc(-c2ccc(/C=N/NC(=S)Nc3cccc(F)c3)o2)cc1", "Kappa-type opioid receptor (Homo sapiens)", 60.3],
  ["COc1ccccc1NC(=O)NCCN1CCN(Cc2ccccc2)CC1", "Kappa-type opioid receptor (Homo sapiens)", 59.6]
]}

(P) O=[N+]([O-])c1ccc(N/N=C/c2ccc(-c3cccs3)s2)nc1
(Q) O=c1c2cc(-c3ccccc3)sc2nnn1/N=C/c1cccs1
(R) O=C(Nc1ccc([N+](=O)[O-])cc1)Nc1csc(-c2cccnc2)n1
(S) CCOC(=O)c1cn[nH]c1NC(=S)Nc1cccc(C(F)(F)F)c1
(T) COc1ccc([N+](=O)[O-])c(S(=O)(=O)c2ccc(Cl)cc2)n1
Task item: Order the entries by their reported inhibition, beginning at the minimum. Could you list the labels in the order requested?
Reply: R, Q, T, S, P

(I) COC(=O)c1cc(-c2ccc(OC)cc2)c(-c2ccc(OC)cc2)s1
(II) NC(=NC(=O)c1cccc(C(F)(F)F)c1)c1ccc(C(F)(F)F)cn1
(III) CC(=O)c1sc2nc(-c3cccs3)cc(C(F)(F)F)c2c1N
(IV) CC(CCC(C)OC(=O)c1ccccc1C(=O)O)OC(=O)c1ccccc1C(=O)O (stereo not drawn)
(V) CS(=O)(=O)/C(C#N)=C\c1ccc(Cl)s1
Task item: # sort list by recorded inhibition, greatest to least Could you list the labels in the order requested?
Reply: I, II, III, IV, V
(I: 68.6%, II: 41.2%, III: 11.3%, IV: 7.76%, V: 4.17%)

(A) O=C(c1cnn(-c2ccc(Cl)cc2)c1C(F)(F)F)N1CCN(c2ncnc3ccsc23)CC1
(B) O=[N+]([O-])c1c(Sc2ccc(Cl)cc2)ccc2nsnc12
Task item: Kindly identify the item with the lower inhibition figure among these two: A and B Write down the label of the entry you select.
Reply: B

(A) N#Cc1cccnc1NNC(=O)COCC(=O)O
(B) CSc1sc(C(=O)NC(=O)Nc2ccc(Cl)cc2)c2c1-c1nocc1CC2
Task item: Kindly identify the item with the lower inhibition figure among these two: A and B Write down the label of the entry you select.
Reply: B

---

target: Kappa-type opioid receptor (Homo sapiens) (UniProt P41145); assay: kappa opioid receptor blockers, retest – cell-based, fluorescence, confirmation (AID 652082); settings: OPRK1 cell line, fluorescence antagonist read-out; at 9 µM; active compounds read high
Measured Metric: inhibition (%)

Consider the worked cases shown below.
{"columns": ["Mol", "Subject Of Test", "inhibition, %"],
 "data": [
  ["Clc1ccc2c(Nc3ccc4c(c3)OCO4)ccnc2c1", "Kappa-type opioid receptor (Homo sapiens) (UniProt P41145)", 30],
  ["N#Cc1cccc(C#N)c1Oc1ccc(N)cc1", "Kappa-type opioid receptor (Homo sapiens) (UniProt P41145)", -6.85],
  ["O=[N+]([O-])c1ccc(-c2ccc(/C=N/Nc3ccccc3)o2)cc1", "Kappa-type opioid receptor (Homo sapiens) (UniProt P41145)", 82.8]
]}

(1) CC(=O)Nc1onc(C)c1-c1nc(-c2ccc(Cl)cc2Cl)cs1
(2) C=CCn1c(-c2sc3nnc(-c4ccccc4)c(-c4ccccc4)c3c2N)n[nH]c1=S
Task item: Lab notebook, comparison: 1 versus 2 , higher inhibition goes to which? Write down the label of the entry you select.
Reply: 2
(2: 30.5%, 1: -1.54%)

---

molecular target: Kappa-type opioid receptor (Homo sapiens) (UniProt P41145); experiment: kappa opioid receptor blockers, retest – cell-based, fluorescence, confirmation (AID 652082); details: OPRK1 cell line, fluorescence antagonist read-out; at 9 µM; active compounds read high
Measured Metric: inhibition (%)

{"columns": ["Molecule", "Subject Of Test", "Measured Metric", "Reading"],
 "data": [
  ["C=CCNC(=S)NNC(=O)c1oc2nc(-c3ccc(Cl)cc3)cc(-c3ccccc3)c2c1N", "Kappa-type opioid receptor (Homo sapiens) (UniProt P41145)", "inhibition", 11.6],
  ["N#Cc1c(S/C=C(\\O)c2cc3ccccc3o2)nc2c(c1C(F)(F)F)CCCC2", "Kappa-type opioid receptor (Homo sapiens) (UniProt P41145)", "inhibition", 15.3],
  ["CC1COC(c2cccc([N+](=O)[O-])c2)N1 (configuration not stated)", "Kappa-type opioid receptor (Homo sapiens) (UniProt P41145)", "inhibition", -9.85],
  ["COc1cccc(/C=C(\\C#N)c2ccc([N+](=O)[O-])cc2)c1OC", "Kappa-type opioid receptor (Homo sapiens) (UniProt P41145)", "inhibition", 34.5],
  ["CN(C)c1cc(NC(=O)Nc2ccccc2)c2ccccc2n1", "Kappa-type opioid receptor (Homo sapiens) (UniProt P41145)", "inhibition", 43.7]
]}

(a) CCCCCC[n+]1ccccc1/C=C/c1ccc(N(C)C)cc1
(b) Brc1ccc(-c2csc(Nc3ccncc3)n2)cc1
Task item: Lab notebook, comparison: a versus b , higher inhibition goes to which? Write down the label of the entry you select.
Reply: a
